Every entry's value here was drawn from patent US20060204492A1.

test_target: T1, integrin αvβ3, purified from human placenta (human, UniProt P06756 31-1048; P05106 27-788)
T1 construct: mature; Native heterodimer, immobilized on ELISA plates or on the BIAcore chip; biotinylated in capture lift and capture ELISA screens; also called αvβ3 receptor; vitronectin receptor
T1 sequence (P06756 31-1048, form in doubt, chain 1 of 2): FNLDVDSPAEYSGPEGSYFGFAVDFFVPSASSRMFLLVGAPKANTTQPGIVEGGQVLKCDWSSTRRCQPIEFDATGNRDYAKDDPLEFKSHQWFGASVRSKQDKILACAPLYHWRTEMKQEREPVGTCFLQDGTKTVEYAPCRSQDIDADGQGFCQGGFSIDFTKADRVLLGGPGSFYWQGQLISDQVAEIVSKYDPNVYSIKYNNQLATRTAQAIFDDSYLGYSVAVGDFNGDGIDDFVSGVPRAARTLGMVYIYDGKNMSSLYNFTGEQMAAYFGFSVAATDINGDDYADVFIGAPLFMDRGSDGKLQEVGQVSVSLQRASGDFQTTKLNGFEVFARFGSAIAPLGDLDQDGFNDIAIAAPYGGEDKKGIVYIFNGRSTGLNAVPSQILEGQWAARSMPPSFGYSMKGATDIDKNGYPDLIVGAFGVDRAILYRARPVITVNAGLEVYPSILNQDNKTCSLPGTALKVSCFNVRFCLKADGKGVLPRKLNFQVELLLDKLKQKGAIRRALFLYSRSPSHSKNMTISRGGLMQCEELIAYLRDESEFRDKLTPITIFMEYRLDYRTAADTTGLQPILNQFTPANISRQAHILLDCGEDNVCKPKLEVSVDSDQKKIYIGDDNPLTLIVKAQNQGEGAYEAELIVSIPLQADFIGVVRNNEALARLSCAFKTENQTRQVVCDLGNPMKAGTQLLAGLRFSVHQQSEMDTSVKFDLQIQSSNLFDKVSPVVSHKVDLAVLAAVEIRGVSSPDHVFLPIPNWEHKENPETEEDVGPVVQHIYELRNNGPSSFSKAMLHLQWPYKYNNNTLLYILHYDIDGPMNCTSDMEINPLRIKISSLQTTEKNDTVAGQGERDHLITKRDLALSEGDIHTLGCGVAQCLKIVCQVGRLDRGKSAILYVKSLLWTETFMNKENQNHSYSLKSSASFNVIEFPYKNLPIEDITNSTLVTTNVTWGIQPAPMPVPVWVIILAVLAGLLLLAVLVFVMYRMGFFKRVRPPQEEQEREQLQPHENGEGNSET
T1 sequence (P05106 27-788, form in doubt, chain 2 of 2): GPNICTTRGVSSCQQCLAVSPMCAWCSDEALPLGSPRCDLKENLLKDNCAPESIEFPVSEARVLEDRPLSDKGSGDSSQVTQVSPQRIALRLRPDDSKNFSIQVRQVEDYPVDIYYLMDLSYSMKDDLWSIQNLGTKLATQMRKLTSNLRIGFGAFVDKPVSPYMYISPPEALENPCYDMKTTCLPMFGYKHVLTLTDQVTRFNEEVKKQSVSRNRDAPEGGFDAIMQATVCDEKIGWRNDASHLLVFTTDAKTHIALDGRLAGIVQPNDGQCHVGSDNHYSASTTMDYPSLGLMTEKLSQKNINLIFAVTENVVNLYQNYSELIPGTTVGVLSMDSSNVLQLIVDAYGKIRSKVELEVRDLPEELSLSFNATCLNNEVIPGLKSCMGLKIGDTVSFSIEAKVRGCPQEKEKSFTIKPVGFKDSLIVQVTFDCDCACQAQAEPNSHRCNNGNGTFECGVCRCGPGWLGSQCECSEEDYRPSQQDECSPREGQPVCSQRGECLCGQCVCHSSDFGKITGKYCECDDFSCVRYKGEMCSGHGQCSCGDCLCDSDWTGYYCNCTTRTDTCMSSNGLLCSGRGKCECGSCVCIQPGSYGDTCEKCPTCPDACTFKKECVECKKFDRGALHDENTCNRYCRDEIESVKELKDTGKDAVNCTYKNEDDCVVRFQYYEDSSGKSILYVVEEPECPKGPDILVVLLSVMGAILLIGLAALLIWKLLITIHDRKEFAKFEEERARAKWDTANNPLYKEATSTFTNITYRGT
protocol_summary: SPR (BIAcore), purified Fab over immobilized αvβ3
Measured log10(koff) by item
All values: base-10 log of koff in s⁻¹.

Solved entries (count: 8):
Output log10(koff) of LM609 grafted antibody variant K52 (Fab, V domains shown, Fab) VH: QVQLVESGGGVVQPGRSLRLSCAASGFTFSSYDMSWVRQAPGKGLEWVAKVKSGGGSTYYLDTVQGRFTISRDNSKNTLYLQMNSLRAEDTAVYYCARHNYGSFAYWGQGTTVTVSS VL: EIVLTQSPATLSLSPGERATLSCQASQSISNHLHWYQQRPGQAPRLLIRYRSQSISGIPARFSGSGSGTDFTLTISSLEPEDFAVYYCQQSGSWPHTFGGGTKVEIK -2.66

State its log10(koff) for this binder: LM609 grafted antibody variant D102 (Fab, V domains shown, Fab) VH: QVQLVESGGGVVQPGRSLRLSCAASGFTFSSYDMSWVRQAPGKGLEWVAKVSSGGGSTYYLDTVQGRFTISRDNSKNTLYLQMNSLRAEDTAVYYCARHNYGSFADWGQGTTVTVSS VL: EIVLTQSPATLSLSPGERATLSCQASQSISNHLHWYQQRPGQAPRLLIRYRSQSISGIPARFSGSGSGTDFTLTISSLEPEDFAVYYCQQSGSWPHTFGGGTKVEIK -3.01

For the binder LM609 grafted antibody variant Y100 (Fab, V domains shown, Fab) VH: QVQLVESGGGVVQPGRSLRLSCAASGFTFSSYDMSWVRQAPGKGLEWVAKVSSGGGSTYYLDTVQGRFTISRDNSKNTLYLQMNSLRAEDTAVYYCARHNYGSYAYWGQGTTVTVSS VL: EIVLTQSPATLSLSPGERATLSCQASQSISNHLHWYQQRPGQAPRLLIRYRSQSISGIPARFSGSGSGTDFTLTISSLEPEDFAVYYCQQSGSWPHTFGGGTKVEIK , give its reported log10(koff). -2.60

Give me measured log10(koff), please, for this binder: LM609 grafted antibody variant Y101 (Fab, V domains shown, Fab) VH: QVQLVESGGGVVQPGRSLRLSCAASGFTFSSYDMSWVRQAPGKGLEWVAKVSSGGGSTYYLDTVQGRFTISRDNSKNTLYLQMNSLRAEDTAVYYCARHNYGSFYYWGQGTTVTVSS VL: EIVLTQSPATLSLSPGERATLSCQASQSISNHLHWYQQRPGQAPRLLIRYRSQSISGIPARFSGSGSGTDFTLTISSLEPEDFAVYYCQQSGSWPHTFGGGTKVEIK -3.32

Recall and state the measured log10(koff) for LM609 grafted antibody Fab (Fab, V domains shown, Fab expressed from M13 phage vector, human kappa chain, peptide tag on the carboxyl-terminus of the heavy chain; also called LM609 grafted Fab; parent LM609 grafted antibody) VH: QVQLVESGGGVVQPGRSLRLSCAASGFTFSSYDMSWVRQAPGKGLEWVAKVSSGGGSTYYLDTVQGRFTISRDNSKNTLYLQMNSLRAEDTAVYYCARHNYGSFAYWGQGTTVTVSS VL: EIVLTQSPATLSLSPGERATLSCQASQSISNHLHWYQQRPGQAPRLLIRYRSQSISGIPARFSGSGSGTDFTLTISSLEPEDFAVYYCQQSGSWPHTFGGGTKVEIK . -2.30

Answer with the recorded log10(koff) for the binder listed here: LM609 grafted antibody variant S102 (Fab, V domains shown, Fab; also called clone S102) VH: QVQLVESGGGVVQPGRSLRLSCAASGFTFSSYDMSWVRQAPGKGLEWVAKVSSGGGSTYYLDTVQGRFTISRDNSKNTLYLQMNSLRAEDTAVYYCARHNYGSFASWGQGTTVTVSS VL: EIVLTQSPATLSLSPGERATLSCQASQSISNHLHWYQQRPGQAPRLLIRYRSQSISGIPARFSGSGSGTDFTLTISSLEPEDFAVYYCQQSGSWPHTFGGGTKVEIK -2.84

Quickly give me recorded log10(koff) for LM609 grafted antibody variant H97 (Fab, V domains shown, Fab) VH: QVQLVESGGGVVQPGRSLRLSCAASGFTFSSYDMSWVRQAPGKGLEWVAKVSSGGGSTYYLDTVQGRFTISRDNSKNTLYLQMNSLRAEDTAVYYCARHNHGSFAYWGQGTTVTVSS VL: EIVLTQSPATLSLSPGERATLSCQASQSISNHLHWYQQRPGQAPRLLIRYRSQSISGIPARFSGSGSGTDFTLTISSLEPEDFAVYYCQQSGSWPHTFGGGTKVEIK -2.52

Note down log10(koff) recorded for LM609 grafted antibody variant L96 (Fab, V domains shown, Fab) VH: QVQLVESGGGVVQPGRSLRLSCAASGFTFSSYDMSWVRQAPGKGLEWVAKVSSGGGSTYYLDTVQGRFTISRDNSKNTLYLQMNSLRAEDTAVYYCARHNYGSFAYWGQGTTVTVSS VL: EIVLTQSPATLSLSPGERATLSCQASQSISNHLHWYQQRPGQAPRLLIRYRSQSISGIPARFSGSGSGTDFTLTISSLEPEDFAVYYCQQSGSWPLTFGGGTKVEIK -2.65

Then this binder:
Indicate the recorded log10(koff) value for this binder: LM609 grafted antibody variant P60 (Fab, V domains shown, Fab) VH: QVQLVESGGGVVQPGRSLRLSCAASGFTFSSYDMSWVRQAPGKGLEWVAKVSSGGGSTYYPDTVQGRFTISRDNSKNTLYLQMNSLRAEDTAVYYCARHNYGSFAYWGQGTTVTVSS VL: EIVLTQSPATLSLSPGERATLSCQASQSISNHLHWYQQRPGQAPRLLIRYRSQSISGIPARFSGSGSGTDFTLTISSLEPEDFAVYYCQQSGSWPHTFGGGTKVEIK -2.73
